# System: glycogen synthase kinase-3 (GSK3A per assay name; protocol says GSK3B)
# protocol.text: compounds binding glycogen synthase kinase-3 – biochemical, small-molecule microarray, 635 nm fluorescence, GSK3A, primary screen (AID 1103); also: the record names both GSK3A and GSK3B
# condition.description: fluorescence 635 nm, higher = more signal
Entries and their composite z-score
# respond with the number and nothing more

>>> numeric_readout("CC(=O)N1Cc2ccccc2C[C@@]2(N=C(c3ccc(OCCCO)cc3)O[C@H]2c2ccccc2)C1=O")
1.09

GET /value?item= "COCCOC(=O)N1C(=O)[C@@]2(c3cc(C#Cc4ccc(OC)cc4)ccc31)[C@H](C(N)=O)[C@H]1C(=O)O[C@H](c3ccccc3)[C@H](c3ccccc3)N1[C@@H]2c1ccc(O)cc1" &field=composite z-score returns -1.53

Recorded result, CC(C)C(CO)N1C(=O)[C@@H]2[C@H]3C(=O)OCC=C[C@H]3OC23C=CCN(c2ccc4ccccc4c2)C(=O)[C@@H]13 (stereo partly drawn) , composite z-score: -1.15

----------
# protocol.text: blockers of DNA damage checkpoint Chk1 activation – imaging, HeLa, hydroxyurea, phospho-Chk1 antibody, percent positive cells, primary screen (AID 1186)
# condition.description: hydroxyurea-induced phospho-Chk1 immunofluorescence imaging, higher = more signal
Entries annotated with measured z-score
Field format: numeric only.

Answered examples (2):
>>> numeric_readout("C=C(CCCC)C(=O)CC[C@H](OC(=O)c1ccccc1-c1ccccc1C(=O)O)c1ccc(CO)o1")
-0.131
>>> numeric_readout("O=[N+]([O-])c1ccc(C[n+]2ccc(CCCO)cc2)o1")
-0.0644

Alright, here's another compound for you.
Measured z-score of "CN(C)CCCC[C@@H]1NC(=O)[C@@H]2C[C@H](C(=O)NCCCCCCN)[C@H](c3ccc(O)cc3)N2C1=O" : 0.136

----------
# protocol.text: inhibition of PAO1 biofilm formation – strain PAO1, LB-PBS medium, absorbance 600 nm, primary screen (AID 1176); also: test concentration not given here
# condition.description: P. aeruginosa PAO1 growth/biofilm, A600, 12 h; higher = more signal
# reported z-score; entries follow
Give the figure by itself; no unit, no explanation.

Worked examples, 10 molecules total:
>>> numeric_readout("COCCOC(=O)N1C(=O)[C@@]2(c3ccccc31)[C@H](C(=O)N1CCCCCCC1)[C@H]1C(=O)O[C@H](c3ccccc3)[C@H](c3ccccc3)N1[C@@H]2c1ccccc1OCCO")
3.81
>>> numeric_readout("C=CCOC(=O)[C@@H]1[C@H]2C(=O)O[C@H](c3ccccc3)[C@H](c3ccccc3)N2[C@H](c2ccc(OCCOC(=O)[C@H]3C[C@H]4C(=O)N[C@@H](CCCC[N+](C)(C)C)C(=O)N4[C@H]3c3cccc(OCCO)c3)cc2)[C@@]12C(=O)Nc1ccc(I)cc12")
3.37
>>> numeric_readout("O=C1O[C@H](c2ccccc2)[C@H](c2ccccc2)N2[C@H]1[C@@H](C(=O)NC[C@H](O)c1ccccc1)[C@]1(C(=O)Nc3ccc(C#CC4(O)CCCCCC4)cc31)[C@H]2c1ccccc1OCCO")
2.83
>>> numeric_readout("COc1ccc(C#Cc2ccc3c(c2)[C@]2(C(=O)N3)[C@H](C(=O)N3CCN(c4ncccn4)CC3)[C@H]3C(=O)O[C@H](c4ccccc4)[C@H](c4ccccc4)N3[C@@H]2c2ccc(O)cc2)cc1")
0.999
>>> numeric_readout("CC(C)N1C(=O)c2ccccc2[C@](C)(C(=O)NCCCN(C)C)[C@@H]1c1ccc(CO)cc1")
-0.522
>>> numeric_readout("CCCC[C@H]1OB(O)C[C@H]2C1=C(COc1ccccc1)C[C@H]1C(=O)N(Cc3ccccc3)C(=O)[C@H]12")
-0.802
>>> numeric_readout("O=C1O[C@H](c2ccccc2)[C@H](c2ccccc2)N2[C@H]1[C@@H](C(=O)N1CCCCCCC1)[C@]1(C(=O)Nc3ccc(C#CC4=CCCCC4)cc31)[C@H]2c1ccc(O)cc1")
0.485
>>> numeric_readout("CCOC(=O)C1=CC[C@@H](c2ccccc2)N(S(=O)(=O)c2ccc(C)cc2)[C@H]1c1ccc(C#N)cc1")
0.381
>>> numeric_readout("CCCNC(=O)[C@@]1(C)c2ccccc2C(=O)N(Cc2cc(F)cc(C(F)(F)F)c2)[C@H]1c1ccc(CO)cc1")
-0.164
>>> numeric_readout("CCOC(=O)C1=CC[C@@H](c2cccc(Cl)c2)N(S(=O)(=O)c2ccc(C)cc2)[C@H]1c1ccc(C#N)cc1")
1.68

Note: attention shifts to another entry.
Data point: "CN(C)CCCCCCNC(=O)[C@@H]1C[C@@H]2C(=O)N[C@@H](Cc3ccccc3)C(=O)N2[C@@H]1c1cccc(OCCO)c1" ; z-score = -0.695

----------
# protocol.text: compound effects on lung adenocarcinoma cell viability – A549, calcein-AM fluorescence, 48 h, basal, profiling panel (AID 1162); also: test concentration not given here
# condition.description: higher = more signal
value.type: z-score
// keep it numeric: no unit symbol after the value

Worked examples follow.
>>> numeric_readout("CCOC(=O)C[C@H]1[C@H](OC(=O)c2cc3ccccc3oc2=O)[C@@H](NC(=O)c2ccc3ccccc3c2)c2cc(OCCCO)ccc2N1C(=O)c1ccccc1")
0.659
>>> numeric_readout("O=C1O[C@H](c2ccccc2)[C@H](c2ccccc2)N2[C@H]1[C@@H](C(=O)NC[C@H](O)c1ccccc1)[C@]1(C(=O)Nc3ccc(C#CC4=CCCCC4)cc31)[C@H]2c1ccc(O)cc1")
-1.06

// "CC(C)(C)OC(=O)CC[C@@]1(C(N)=O)N=C(c2ccc(OCCCO)cc2)O[C@@H]1c1ccccc1N=[N+]=[N-]" : z-score value = 1.37

----------
# Tested on: PRMT1 (protein arginine N-methyltransferase 1)
# protocol.text: small molecules binding arginine methyltransferase PRMT1 – biochemical, small-molecule microarray, 635 nm fluorescence, primary screen (AID 1088);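 also: binding of Prmt1 protein to compounds spotted on small-molecule microarray slides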
# condition.description: higher = more signal
Reported composite z-score values for a set of molecules
Just the number, please, no unit attached.

Consider the reported composite z-score for these molecules:
>>> numeric_readout("C=CCN1C(=O)[C@]2(Cc3ccccc31)N=C(c1ccc(OCCCO)cc1)O[C@@H]2c1ccccc1")
1.33
>>> numeric_readout("CCOC1=C2C(c3ccc(C)cc3)N(S(=O)(=O)c3ccc(C)cc3)CC2n2c(=O)n(-c3ccccc3)c(=O)n2C1 (stereo not drawn)")
1.41
>>> numeric_readout("O=C1c2ccccc2[C@@]2(Cc3ccccc3N(Cc3ccccc3)C2=O)[C@H](c2ccc(CO)cc2)N1Cc1ccccc1C(F)(F)F")
-0.325

composite z-score recorded for this molecule, O=C1OCC=C[C@H]2OC34C=CCN(c5ccc(Cl)cc5)C(=O)[C@H]3N(CCCO)C(=O)[C@@H]4[C@@H]12 (stereo partly drawn) , is 0.631

Per the record, "C=C[C@H](OC)[C@@H](OC(=O)Nc1ccc(SC)cc1)c1ccc(OCCO)cc1" has composite z-score of 1.15

----------
z-score by entry:
# protocol.text: compound effects on lung adenocarcinoma cell viability – A549, calcein-AM fluorescence, 48 h, basal, profiling panel (AID 1162); also: test concentration not given here
# condition.description: higher = more signal

Recorded results for 2 compounds are shown here.
>>> result("[N-]=[N+]=NCc1ccccc1[C@H]1OC(c2ccc(OCCCO)cc2)=N[C@@]1(Cc1ccccc1)C(=O)NCC(O)CO (stereo partly drawn)")
0.347
>>> result("CC(C)[Si]1(C(C)C)O[C@@H](c2ccccc2)c2cc(-c3ccc(-c4ccc(Cl)c(Cl)c4)o3)nc(CCc3ccccc3)c21")
-0.516

Documented z-score of "COCCOC(=O)N1C(=O)[C@@]2(c3cc(C#CC4=CCCCC4)ccc31)[C@H](c1ccc(OCCO)cc1)N1[C@H](c3ccccc3)[C@H](c3ccccc3)OC(=O)[C@H]1[C@@H]2C(=O)Nc1nc2ccccc2s1" : 0.642

----------
# protocol.text: probe aLefty1 binding on compound microarray – biochemical, small-molecule microarray, 635/667 nm fluorescence, primary screen (AID 1153);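 also: score merges spot fluorescence with signal-to-noise ratio from the scanned slide images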
# condition.description: higher = more signal
Catalogue of composite z-score values
Please give only the number in your answer, with no unit.

>>> numeric_readout("COc1ccc([Si](C)(C)[C@@H]2[C@@H](CCO)O[C@]3(C(=O)N(Cc4ccccc4)c4ccc(N(C=O)c5ccccc5)cc43)[C@H]2C)cc1")
0.0355
>>> numeric_readout("O=C1O[C@H](c2ccccc2)[C@H](c2ccccc2)N2[C@H]1[C@@H](C(=O)N1CCCCCCC1)[C@]1(C(=O)Nc3ccc(C#CC4=CCCCC4)cc31)[C@H]2c1ccc(O)cc1")
3.07
>>> numeric_readout("O=C1O[C@@H](c2ccccc2)[C@@H](c2ccccc2)N2[C@@H](c3ccc(O)cc3)[C@]3(C(=O)Nc4ccccc43)[C@@H](C(=O)NC[C@H](O)c3ccccc3)[C@H]12")
-0.151

Recorded composite z-score (compound "CCCCC(=O)N(Cc1ccccc1F)[C@@H]1CC(C(=O)NCCO)=C[C@H](Oc2c(I)cc(CO)cc2OC)[C@H]1O" ): 0.298

So for "C=CCN1C(=O)[C@@]2(O[C@@H](CCO)[C@H]([Si](C)(C)c3ccc(OC)cc3)[C@H]2C)c2cc(NC(C)=O)ccc21" , the logged composite z-score turned out to be 0.0429

The measured values listed here are drawn from PubChem BioAssay.
